test: NCI Yeast Anticancer Drug Screen. Data for the mlh1 strain (AID 171);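 also: 0% = growth of vehicle-treated control cultures of the same strain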; conditions: S. cerevisiae mlh1 strain growth inhibition; at 3.7 µM; active compounds read high
This is part of a sample that, as a whole, favours compounds with a hit. Of some 79,000 tested, about 15% had one in any assay.
Below: a set of entries, each annotated with reported growth inhibition.
Express your answer in %, writing the number without its unit.

Worked set:
Cc1cc2c(cc1C(=O)CCC(=O)O)CC1(C2)Cc2cc(C)c(C(=O)CCC(=O)O)cc2C1 ... 5
Cc1cccc2c(C(O)CBr)cc(-c3ccc(Cl)cc3)nc12 (configuration not stated) ... 1
COc1cc2c3c(cccc3c1)C(=O)N(CCN(C)C)C2=O ... 3
BrCC[P+](c1ccccc1)(c1ccccc1)c1ccccc1 ... -70
CCCCCCCC1(N=[N+]=[N-])C(=O)c2ccccc2N(C)C1=O (configuration not stated) ... 10
Cc1ccc(NC(=O)/C(Cl)=C(\Cl)C(=O)O)cc1C ... 4
CN1Cc2ccccc2/C=C\c2ccccc21 ... 1
c1ccc2c(c1)NC(NC1Nc3ccccc3N1)N2 ... 1

Look up growth inhibition for this molecule: "CCc1ccc(NS(=O)(=O)c2ccccc2)c([N+](=O)[O-])c1"
3

Moving on to CCN(CC)CC(O)c1ccc2ccc3ccccc3c2c1 (configuration not stated)
8

Moving on to "O=C(NCCCCCCCN1CCCCCCC1)C(C1CCCCC1)C1CCCCC1"
48

Moving on to "CC(C)/C(Cl)=N\OC(=O)Nc1cccc(Cl)c1"
-7

Moving on to "COc1ccc(/C=C2\SC(=S)N(/C=C/c3nc4ccccc4[nH]c3=O)C2=O)cc1OC"
5

Moving on to "CCCCCCCCCCCCCCCCCCNC"
-10

Moving on to "N#C/C(=C\c1cccc(OCc2ccccc2)c1)c1ccc([N+](=O)[O-])cc1"
-41

Moving on to "CC(=O)ON1C(=O)c2cccc3cccc(c23)C1=O"
91

Moving on to "Cc1ccc(-c2ccc(Nc3c4ccccc4nc4ccccc34)cc2)cn1"
2

###

experiment: NCI Yeast Anticancer Drug Screen. Data for the mec2-1 strain (AID 157); details: S. cerevisiae mec2-1 strain, at 5.0 µM (retest, dose inferred, filed as 0.5), active compounds read high
This is part of a sample that, as a whole, favours compounds with a hit. Of some 79,000 tested, about 15% had one in any assay.
Decide by growth inhibition: equal to or exceeding 20% means criterion met, less means criterion not met.

Answered examples (6):
O=C1C=CC(=Nc2ccc3c(c2)Cc2cc(NC(=O)C(F)(F)F)ccc2-3)O1 ... criterion met
CCN(CC)C(=S)N/N=C(/C)c1cccc(/C(C)=N\NC(=S)N(CC)CC)n1 ... criterion not met
CCC(C)COC(=O)c1ccc(N=Cc2ccc(C=Nc3ccc(C(=O)OCC(C)CC)cc3)cc2)cc1 (stereo unspecified) ... criterion not met
O=C(CC(=O)n1nc(-c2ccccc2)c(N=Nc2ccccc2C(=O)O)c1-c1ccccc1)Nc1ccc(Cl)cc1 ... criterion not met
C#CCCCc1ccccc1 ... criterion not met
Cc1cc(N=Nc2ccc(S(=O)(=O)[O-])cc2)cc(C(=O)[O-])c1[O-].NC1CCCCC1N.[Na+].[Pt+4] ... criterion met

growth inhibition >= 20% for "O=C(N=Nc1ccccc1Cl)NNc1ccccc1Cl" ?
criterion not met

###

assay: NCI Yeast Anticancer Drug Screen. Data for the wt2 strain (AID 169);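 also: 0% = growth of vehicle-treated yeast cultures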; conditions: S. cerevisiae wt2 strain growth inhibition; at 100.0 µM; active compounds read high
About 79,000 compounds went through this panel and 15% of them were active in at least one assay; those are over-represented in the sample as a whole.
Below: a set of entries, each annotated with reported growth inhibition.
Express your answer in %, writing the number without its unit.

CC(C)c1ccccc1NC(=O)/C(Cl)=C(\Cl)C(=O)O ... 88
CC1C(NNc2ccccc2)Oc2cc3c(cc2C1c1ccccc1O)OCO3 (centres undefined) ... 94
Oc1ccc2ccccc2c1C(c1ccc(Cl)cc1)c1c(O)ccc2ccccc12 ... 80

As a next step, examine the compound that follows.
Look up growth inhibition for this compound: "COc1ccc(O)c(/C=N\Nc2ccccc2)c1"
96

###

Below: a set of entries, each annotated with reported growth inhibition.
experiment: NCI Yeast Anticancer Drug Screen. Data for the bub3 strain (AID 167); settings: S. cerevisiae bub3 mutant strain, at 1.2 µM, active compounds read high
Compounds without any hit were thinned out: in the full panel of roughly 79,000, 15% have a hit.
Express your answer in %, writing the number without its unit.

Worked set:
Cc1ccc(NN(NC(=O)OC(C)C)C(=O)OC(C)C)cc1 ... -5
C[CH2][Sn]([CH2]C)([O]C(=O)C(OC(C)=O)c1ccccc1)[O]C(=O)C(OC(C)=O)c1ccccc1 (stereo not given) ... 1

Look up growth inhibition for this molecule: O=C1CSC(/C=C/c2ccccc2)N1c1ccc(-c2ccc(-n3c(-c4ccccc4)nc4ccccc4c3=O)cc2)cc1 (stereo not given)
4

Moving on to "COc1cccc2nc3ccccc3nc12"
1

Moving on to "Cc1[nH]c2ccccc2c1C(c1ccc(N)cc1)c1c(C)[nH]c2ccccc12"
-3

Moving on to CCC(C(=O)O)C1=C(c2ccccc2)CCc2ccccc21 (stereo not given)
6

Moving on to "O=C(CCCN1CCC2(CC1)CC(=O)N(N1CCCCCC1)C2=O)c1ccc(F)cc1"
40

Moving on to "CCN(CC)CCNc1ccc([N+](=O)[O-])c2nc3ccc(OC)cc3c(N)c12"
-23

Moving on to "N#CN=Nc1cc(Cl)c(N=NC#N)cc1Cl"
-19

Moving on to Cc1ccc(C2C(Cl)C(=O)N2n2cnc3ccccc3c2=O)cc1 (stereo not given)
-10

###

experiment: NCI Yeast Anticancer Drug Screen. Data for the mlh1 rad18 strain (AID 175); conditions: S. cerevisiae mlh1 rad18 strain growth inhibition; at 50.0 µM
This is part of a sample that, as a whole, favours compounds with a hit. Of some 79,000 tested, about 15% had one in any assay. Calls of active or inactive are those of the source. No stated cut-off is given here; in the data, active means growth inhibition above about 70%; inactive means the rest.
Please reply with one of these outcomes: Y (active), N (inactive)

Answered examples (4):
Cc1ccc(CCC2=CCCc3c2ccc2ccccc32)cc1 ... N
N#Cc1c(N)[nH]c2ccc(Sc3ccccc3)cc12 ... Y
c1ccc2c(c1)-c1nc3ccccc3cc1C2N1CCOCC1 (stereo not given) ... N
Cc1nn(-c2cc(Cl)ccc2[N+](=O)[O-])c(C)c1Cl ... N

Attention now turns to another entry.
For "CC[C@@]1(O)C(=O)OCc2c1cc1n(c2=O)Cc2cc3c(CN(C)C)c(O)ccc3nc2-1" , which call appears in the assay record?
N

###

Below: a set of entries, each annotated with reported growth inhibition.
assay: NCI Yeast Anticancer Drug Screen. Data for the rad50EPP+ strain (AID 151);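 also: 0% = growth of vehicle-treated control cultures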; details: S. cerevisiae rad50 mutant strain, at 3.7 µM, active compounds read high
About 79,000 compounds went through this panel and 15% of them were active in at least one assay; those are over-represented in the sample as a whole.
Express your answer in %, writing the number without its unit.

Worked set:
C/C(=N\O)C1CC2C=C(C#N)C1N(Cc1ccccc1)C2 (stereo unspecified) ... 2
CCNc1nnc(CSc2nc(-c3ccccc3)c(-c3ccccc3)[nH]2)s1 ... 13
O=Nc1cccnc1N=O ... 14
Cc1ccc2ccc(O)cc2c1 ... -49
[N-]=[N+]=NC1=C(c2ccccn2)C(=O)c2cccc3cccc1c23 ... 16

Look up growth inhibition for this molecule: CC(C)C1=CCC2C(=C1)CCC1C(C)(C(=O)O)CCCC21C (stereo unspecified) (tested in a mixture with another compound)
33

###

Assay: NCI Yeast Anticancer Drug Screen. Data for the rad50 strain (AID 155);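 also: 0% = growth of vehicle-only cultures of the same strain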
Details: S. cerevisiae rad50 strain growth inhibition; at 3.7 µM
Procedure: Growth inhibition of yeast strains with defined genetic alterations is measured as a screen for potential anti-cancer activity. Selected strains with alterations in DNA damage repair or cell cycle control were exposed to compounds and growth inhibition was measured relative to vehicle treated controls. The strain used in this assay is rad50
This is part of a sample that, as a whole, favours compounds with a hit. Of some 79,000 tested, about 15% had one in any assay. Active and inactive are the calls of the source. Cut-off read from the data, not from the text of the source: active = growth inhibition above about 70%; inactive = the rest.
Please reply with one of these outcomes: active, inactive

Answered examples (6):
Nc1ccn(C2OC(CO)C3[O][Sn]([c]4ccccc4)([c]4ccccc4)[O]C32)c(=O)n1 (centres undefined) ... inactive
Cc1cc(O)cc(O)c1N=Nc1ccc([N+](=O)[O-])cc1 ... inactive
CSc1nc(=S)[nH]c2c1c(C)nn2-c1ccccc1 ... inactive
Cc1c(C(=O)C(=O)c2ccccc2)c(C)c(C(=O)C(=O)c2ccccc2)c(C)c1C(=O)C(=O)c1ccccc1 ... inactive
N#CN=Nc1cc(Cl)c(N=NC#N)cc1Cl ... inactive
O=c1ssc2ncccc12 ... inactive

For "BrCc1cccc2ccc3cccc(CBr)c3c12" , which call appears in the assay record?
inactive

Moving on to O=C1C2C=CC1C1C(=O)OC(=O)C21 (centres undefined)
inactive

Moving on to "O=[N+]([O-])c1ccc(=S)[nH]c1"
inactive

Moving on to C(CCSC1=NCCN1)CSC1=NCCN1 (tested in a mixture with another compound)
inactive

Moving on to CC(=O)OCC(=O)C1(O)CCC2C3CCC4CCCCC4(C)C3CCC21C (centres undefined)
inactive

Moving on to "c1ccc2c(c1)c1ncccc1c1nccnc21"
inactive

Moving on to "c1ccc2c(c1)Oc1cccc3cccc-2c13"
inactive

Moving on to CCC(C)COC(=O)c1ccc(N=Cc2ccc(C=Nc3ccc(C(=O)OCC(C)CC)cc3)cc2)cc1 (centres undefined)
inactive
